target: T1, full length recombinant human 2N4R tau (human, UniProt P10636 1-758); assay: SPR SCK, IgG on Protein A, tau in flow
T1 construct: bought from rPeptide; pHrodo Red maleimide-labelled where it stands in uptake assays; also called tau1-441; full length tau
T1 sequence (P10636 other isoform, or with tags, fused parts or gaps limits assumed): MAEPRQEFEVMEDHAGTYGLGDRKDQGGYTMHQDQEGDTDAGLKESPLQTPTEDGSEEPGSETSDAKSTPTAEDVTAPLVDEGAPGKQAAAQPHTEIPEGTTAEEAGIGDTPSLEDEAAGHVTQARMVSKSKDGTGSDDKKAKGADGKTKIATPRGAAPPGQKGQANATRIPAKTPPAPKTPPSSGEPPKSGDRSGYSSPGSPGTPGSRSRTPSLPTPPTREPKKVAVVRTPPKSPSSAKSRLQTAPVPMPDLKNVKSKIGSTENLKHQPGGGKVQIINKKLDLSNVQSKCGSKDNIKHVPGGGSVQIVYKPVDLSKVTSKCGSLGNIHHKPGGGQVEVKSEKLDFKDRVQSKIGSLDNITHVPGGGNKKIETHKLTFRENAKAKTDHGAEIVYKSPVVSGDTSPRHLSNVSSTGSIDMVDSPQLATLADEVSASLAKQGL
Experimental Readout: kon (M⁻¹ s⁻¹)
The response must be a number in M⁻¹ s⁻¹ with no trailing unit.

{"columns": ["Binder", "Unit Name", "kon"],
 "data": [
  ["#44 VH3VK2 humanised hIgG1 (antibody, V domains shown, also called VH3Vκ2) VH: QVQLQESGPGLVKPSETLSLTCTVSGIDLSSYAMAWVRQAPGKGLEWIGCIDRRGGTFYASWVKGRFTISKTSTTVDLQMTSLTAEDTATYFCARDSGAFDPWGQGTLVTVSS VL: QIVMTQSPSSLSASVGDRVTITCQASQSVYDNYLAWYQQKPGQPPKLLIHAASNLASGVPSRFKGSGSGTEFTLTISSLQPDDFATYYCLGEFSCTTTDCNVFGGGTKVEIK", "M⁻¹ s⁻¹", "4.66e+06"]
]}

Input #44 VH3VK3 humanised hIgG1 (antibody, V domains shown, also called VH3Vκ3; Clone VH3VK3 (A)) VH: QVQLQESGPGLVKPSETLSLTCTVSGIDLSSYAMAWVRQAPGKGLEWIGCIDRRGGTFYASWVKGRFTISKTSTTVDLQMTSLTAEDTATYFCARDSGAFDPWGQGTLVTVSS VL: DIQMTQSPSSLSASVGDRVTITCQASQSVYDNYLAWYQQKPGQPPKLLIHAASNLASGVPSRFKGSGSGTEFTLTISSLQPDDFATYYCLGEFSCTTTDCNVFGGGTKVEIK . Output kon: 4.43e+06

Kindly note the recorded kon for #44 VH1VK3 humanised hIgG1 (antibody, V domains shown, also called VH1Vκ3) VH: QSVQESGGGLVKPSETLSLTCTVSGIDLSSYAMAWVRQAPGKGLEWIGCIDRRGGTFYASWVKGRFTISKTSTTVDLKMTSLTAEDTATYFCARDSGAFDPWGQGTLVTVSS VL: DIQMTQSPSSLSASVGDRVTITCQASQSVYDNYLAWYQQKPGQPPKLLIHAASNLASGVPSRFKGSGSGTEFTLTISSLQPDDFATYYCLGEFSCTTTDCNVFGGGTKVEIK , which is 2.58e+06

// provenance: patent US20250270301A1
